B1: SLC22A15 (parent)
chain: IAQYALLGYFIRSWRTLAILVNLQ

# Variants of: B1
# assay notes: protein stability index of a GFP-peptide fusion (GPS, HEK-293T) (PSI 1-6); higher = more stable;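 note: lentivirally expressed fusions sorted by FACS into six bins by GFP to DsRed ratio, PSI derived from sequencing read proportions per bin multiplied by bin number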
# experimental parameters: c terminus: a fixed tail appended
Could you please report measured protein stability index for the items listed next?
Form rule: numeric answer, no unit written next to it.

Input line: Fill in: protein stability index of A2V is ___
Output line: 2.88

Input line: What protein stability index value was documented for this variant, T16E ?
Output line: 2.07

Input line: Can you look up the measured protein stability index of I19N for me?
Output line: 3

Input line: Please give the measured protein stability index for this variant: I19T
Output line: 2.44

Input line: Given the variant I19D , what is its reported protein stability index?
Output line: 3.35
